system: hSTING (Homo sapiens, UniProt Q86WV6, G230A/H232R/R293Q/R71H)
Sequence (Q86WV6 whole entry R71H/G230A/H232R/R293Q): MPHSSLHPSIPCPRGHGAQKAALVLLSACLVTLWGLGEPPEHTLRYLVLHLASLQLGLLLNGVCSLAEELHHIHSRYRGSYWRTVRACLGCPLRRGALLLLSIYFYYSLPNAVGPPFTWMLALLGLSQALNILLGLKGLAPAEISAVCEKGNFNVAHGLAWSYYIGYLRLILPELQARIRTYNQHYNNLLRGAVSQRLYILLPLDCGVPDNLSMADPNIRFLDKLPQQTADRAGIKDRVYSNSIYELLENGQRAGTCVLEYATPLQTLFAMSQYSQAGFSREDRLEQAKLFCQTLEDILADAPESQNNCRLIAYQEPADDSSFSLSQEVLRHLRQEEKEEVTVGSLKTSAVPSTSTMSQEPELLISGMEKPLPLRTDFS
assay_remarks: STING reporter assay (luciferase) in THP1-Dual KO-IFNAR2 cells activated with 2'3'cGAMP
experimental_parameters: 15 μM 2'3'cGAMP, 24 h
property_measured: EC50

[
  {
    "compound": "Cn1c(Nc2ccc3cc[nH]c3c2)nc2cc(C(F)(F)F)ccc21",
    "assay_result": "200 to 1000 nM"
  },
  {
    "compound": "Clc1cc(Nc2nc3cc(-c4cnn(-c5ccccc5)c4)ccc3[nH]2)cc2[nH]ccc12",
    "assay_result": "200 to 1000 nM"
  },
  {
    "compound": "N#CC1(c2ccc(-c3ccc4[nH]c(Nc5cc(Cl)c6cc[nH]c6c5)nc4c3)cc2)CC1",
    "assay_result": "200 to 1000 nM"
  },
  {
    "compound": "CN1CCC(c2ccc3[nH]c(Nc4cc(Cl)c5cc[nH]c5c4)nc3c2)CC1",
    "assay_result": "5000 to 100000 nM"
  },
  {
    "compound": "Cn1c(Nc2cc(Cl)c3cc[nH]c3c2)nc2cc(C(F)(F)F)ccc21",
    "assay_result": "1000 to 5000 nM"
  },
  {
    "compound": "N#Cc1ccc2[nH]c(Nc3cc(Cl)c4cc[nH]c4c3)nc2c1",
    "assay_result": "200 to 1000 nM"
  },
  {
    "compound": "CS(=O)(=O)N1CCC(c2ccc3[nH]c(Nc4cc(Cl)c5cc[nH]c5c4)nc3c2)CC1",
    "assay_result": "200 to 1000 nM"
  },
  {
    "compound": "FC(F)(F)c1ccc2[nH]c(Nc3cc(Cl)c4cc[nH]c4c3)nc2c1",
    "assay_result": "200 to 1000 nM"
  },
  {
    "compound": "Clc1cc(Nc2nc3cc(Br)ccc3[nH]2)cc2[nH]ccc12",
    "assay_result": "200 to 1000 nM"
  },
  {
    "compound": "OC1CCC(c2ccc3[nH]c(Nc4cc(Cl)c5cc[nH]c5c4)nc3c2)CC1 (centres unmarked)",
    "assay_result": "1000 to 5000 nM"
  },
  {
    "compound": "CC(C)(O)CCc1ccc2[nH]c(Nc3cc(Cl)c4cc[nH]c4c3)nc2c1",
    "assay_result": "200 to 1000 nM"
  },
  {
    "compound": "Clc1cc(Nc2nc3cc(C4CCOC4)ccc3[nH]2)cc2[nH]ccc12 (centres unmarked)",
    "assay_result": "200 to 1000 nM"
  },
  {
    "compound": "Clc1cc(Nc2nc3cc(C4CCCOC4)ccc3[nH]2)cc2[nH]ccc12 (centres unmarked)",
    "assay_result": "200 to 1000 nM"
  },
  {
    "compound": "CC(C)(C)OC(=O)NC1CCC(c2ccc3[nH]c(Nc4cc(Cl)c5cc[nH]c5c4)nc3c2)CC1 (centres unmarked)",
    "assay_result": "200 to 1000 nM"
  },
  {
    "compound": "FC(F)(F)C1CCC(c2ccc3[nH]c(Nc4cc(Cl)c5cc[nH]c5c4)nc3c2)CC1 (centres unmarked)",
    "assay_result": "1000 to 5000 nM"
  },
  {
    "compound": "Clc1ccc2[nH]c(Nc3cc(Cl)c4cc[nH]c4c3)nc2c1",
    "assay_result": "200 to 1000 nM"
  },
  {
    "compound": "Cn1ccc(-c2ccc3[nH]c(Nc4cc(Cl)c5cc[nH]c5c4)nc3c2)n1",
    "assay_result": "200 to 1000 nM"
  },
  {
    "compound": "COCCn1cc(-c2ccc3[nH]c(Nc4cc(Cl)c5cc[nH]c5c4)nc3c2)cn1",
    "assay_result": "200 to 1000 nM"
  },
  {
    "compound": "CC(C)CCc1ccc2[nH]c(Nc3cc(Cl)c4cc[nH]c4c3)nc2c1",
    "assay_result": "200 to 1000 nM"
  },
  {
    "compound": "Clc1cc(Nc2nc3cc(-c4ccc(N5CCCC5)nc4)ccc3[nH]2)cc2[nH]ccc12",
    "assay_result": "1000 to 5000 nM"
  },
  {
    "compound": "CC1(C)CC(c2ccc3[nH]c(Nc4cc(Cl)c5cc[nH]c5c4)nc3c2)CC(C)(C)O1",
    "assay_result": "5000 to 100000 nM"
  },
  {
    "compound": "Clc1cc(Nc2nc3ccc(C4CCC4)cc3[nH]2)cc2[nH]ccc12",
    "assay_result": "200 to 1000 nM"
  },
  {
    "compound": "Fc1cc(Nc2nc3cc(Cl)c(Cl)cc3[nH]2)cc2[nH]ccc12",
    "assay_result": "200 to 1000 nM"
  },
  {
    "compound": "Clc1cc(Nc2nc3cc(-c4ccc(CN5CCOCC5)s4)ccc3[nH]2)cc2[nH]ccc12",
    "assay_result": "200 to 1000 nM"
  },
  {
    "compound": "Clc1cc(Nc2nc3cc(C4CCOCC4)ccc3[nH]2)cc2[nH]ccc12",
    "assay_result": "200 to 1000 nM"
  },
  {
    "compound": "CC(C)(C)C1CCC(c2ccc3[nH]c(Nc4cc(Cl)c5cc[nH]c5c4)nc3c2)CC1 (centres unmarked)",
    "assay_result": "1000 to 5000 nM"
  },
  {
    "compound": "CC(=O)N1CCC(c2ccc3[nH]c(Nc4cc(Cl)c5cc[nH]c5c4)nc3c2)CC1",
    "assay_result": "1000 to 5000 nM"
  },
  {
    "compound": "FC(F)(F)c1cc2[nH]c(Nc3cc(Cl)c4cc[nH]c4c3)nc2cn1",
    "assay_result": "200 to 1000 nM"
  },
  {
    "compound": "FC(F)(F)c1cnc2nc(Nc3cc(Cl)c4cc[nH]c4c3)[nH]c2c1",
    "assay_result": "200 to 1000 nM"
  }
]
